Listing: Percent Effect of selected compounds
Assay System: Arginase-2, mitochondrial (Homo sapiens) (UniProt P78540)
Sequence (P78540 whole entry): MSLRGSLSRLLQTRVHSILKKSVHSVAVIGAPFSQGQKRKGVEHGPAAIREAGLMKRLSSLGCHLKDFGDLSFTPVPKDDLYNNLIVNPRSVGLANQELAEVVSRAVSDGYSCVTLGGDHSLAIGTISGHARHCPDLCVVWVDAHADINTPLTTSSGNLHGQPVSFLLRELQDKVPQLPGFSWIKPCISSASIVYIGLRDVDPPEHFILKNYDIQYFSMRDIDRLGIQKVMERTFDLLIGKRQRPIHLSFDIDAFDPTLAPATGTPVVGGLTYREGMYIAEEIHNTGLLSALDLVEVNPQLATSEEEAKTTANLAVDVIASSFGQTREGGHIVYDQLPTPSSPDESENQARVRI
Assay Protocol: in vitro enzyme assay to detect the production of urea directly proportional to the activity of Arginase II
Format: functional
Parameters: scale not given: in the data most compounds retested in dose-response had high values
Experimental Context: 33.3 µM

Compound | Unit Annotation | Percent Effect
CC(C)COCC(NC(=O)c1cccnc1)c1ccco1 (stereo not drawn) | % | -4.01
CCOc1ncccc1C(=O)N1CCCCC1c1nccs1 (stereo not drawn) | % | -7.62
Cc1nc(C)c(CC(=O)Nc2nnc(C)s2)c(=O)[nH]1 | % | 1.15
O=C(c1cnccn1)N1CCN2C[C@H](OCc3ccccn3)C[C@H]2C1 | % | 0.538
O=C(CCC1CC1)N1C[C@@H](CN2CCCC2)[C@@H](CO)C1 | % | -8.28
CC(NC(=O)C1=NN(C)C(=O)CC1)c1ccc(Cl)cc1Cl (stereo not drawn) | % | 8.64
O=C(Nc1cc(F)ccc1OCC1CCCO1)c1ccc(O)nc1 (stereo not drawn) | % | -14.5
CC1CN(C(=O)CN(Cc2ccco2)C2CC2)CCO1 (stereo not drawn) | % | 4.84
CCOCCOc1ccccc1C(=O)N1CCCC(c2ncc[nH]2)C1 (stereo not drawn) | % | 3.64
O=C(c1cnccn1)N1CCN(Cc2ccncc2)c2ncccc2C1 | % | -20.2
Cc1cccc(CN2CCC3(CCCN(C(=O)c4ccsc4)C3)C2=O)n1 (stereo not drawn) | % | -0.645
COc1ccc(CN2C[C@@H]3COC[C@]3(COc3cccnc3)C2)cc1 | % | -0.417
O=C(Nc1cccc(OCc2cccc(F)c2)c1)C1COCCO1 (stereo not drawn) | % | -0.521
